Target: T1, cynomolgus monkey IL-33 expressed with a C-terminal hexahistidine tag (cynomolgus monkey)
T1 construct: also called MfIL-33-6His; Mf-IL-33-6His
T1 chain: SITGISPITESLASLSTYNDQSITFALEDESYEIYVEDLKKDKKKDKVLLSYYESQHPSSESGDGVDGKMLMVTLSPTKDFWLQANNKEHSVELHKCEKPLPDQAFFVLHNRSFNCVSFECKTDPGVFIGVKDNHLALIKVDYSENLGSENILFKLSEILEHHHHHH
Assay: SPR 37C, pH6.0 chase, mAb captured
Experimental: Equilibrium dissociation constants (KD values) for IL-33 binding to purified anti-IL-33 monoclonal antibodies were determined using a real-time surface plasmon resonance biosensor using a Biacore 4000 instrument. […] Association of either hIL-33 or MfIL-33-6His to the captured monoclonal antibody was monitored for 4 minutes and their dissociation in ABS-ET running buffer was monitored for 10 minutes. […]
A collection of binders and their measured koff
Respond numerically; units are s⁻¹ and should not be typed.

Provide one value: measured koff of H4H9671P (antibody, human IgG4, V domains shown, Human IgG4 Fc (H4H)) VH: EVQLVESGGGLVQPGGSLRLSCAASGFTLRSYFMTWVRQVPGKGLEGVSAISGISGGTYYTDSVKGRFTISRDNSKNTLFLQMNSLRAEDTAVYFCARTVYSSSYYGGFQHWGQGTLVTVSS VL: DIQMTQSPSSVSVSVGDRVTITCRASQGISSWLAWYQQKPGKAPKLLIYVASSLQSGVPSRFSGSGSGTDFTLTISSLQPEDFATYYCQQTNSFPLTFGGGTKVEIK 0.00819

Name the recorded koff of the binder listed here: H4H9662P (antibody, V domains shown, Human IgG4 Fc (H4H)) VH: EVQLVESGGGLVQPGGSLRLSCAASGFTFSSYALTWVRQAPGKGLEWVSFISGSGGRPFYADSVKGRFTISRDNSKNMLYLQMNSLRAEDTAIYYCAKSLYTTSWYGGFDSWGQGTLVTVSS VL: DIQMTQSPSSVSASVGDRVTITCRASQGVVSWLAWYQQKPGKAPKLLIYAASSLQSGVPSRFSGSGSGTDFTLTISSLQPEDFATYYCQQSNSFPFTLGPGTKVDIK 0.00168

Report koff, nothing else, for this binder: H4H9665P (antibody, human IgG4, V domains shown, Human IgG4 Fc (H4H)) VH: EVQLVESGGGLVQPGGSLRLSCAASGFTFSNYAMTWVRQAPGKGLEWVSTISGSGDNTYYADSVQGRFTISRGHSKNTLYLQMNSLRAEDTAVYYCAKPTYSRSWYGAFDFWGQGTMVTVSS VL: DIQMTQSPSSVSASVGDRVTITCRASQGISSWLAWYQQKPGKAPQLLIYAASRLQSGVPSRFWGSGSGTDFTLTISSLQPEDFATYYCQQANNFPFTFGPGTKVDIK 0.004
